biological target: HRgpA-6H (Porphyromonas gingivalis) (UniProt P28784); test: ELISA, Fab FASEBA supernatant on coated HRgpA-6H (0.0625 ug/ml)
Is OD450nm at least 0.8? Then y. If not, n.

Exam item: decide whether the reported OD450nm for KB001 parental mouse Fab (WT) (Fab, V domains shown) VH: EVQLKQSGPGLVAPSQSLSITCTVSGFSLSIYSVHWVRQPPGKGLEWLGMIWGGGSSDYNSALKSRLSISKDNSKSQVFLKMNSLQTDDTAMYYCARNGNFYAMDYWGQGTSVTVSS VL: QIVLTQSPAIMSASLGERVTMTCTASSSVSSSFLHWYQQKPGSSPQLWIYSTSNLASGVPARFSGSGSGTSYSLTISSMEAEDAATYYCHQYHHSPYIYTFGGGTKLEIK is at least 0.8.
y

Exam item: decide whether the reported OD450nm for KB001 parental mouse Fab VH variant F101M (Fab, V domains shown) VH: EVQLKQSGPGLVAPSQSLSITCTVSGFSLSIYSVHWVRQPPGKGLEWLGMIWGGGSSDYNSALKSRLSISKDNSKSQVFLKMNSLQTDDTAMYYCARNGNMYAMDYWGQGTSVTVSS VL: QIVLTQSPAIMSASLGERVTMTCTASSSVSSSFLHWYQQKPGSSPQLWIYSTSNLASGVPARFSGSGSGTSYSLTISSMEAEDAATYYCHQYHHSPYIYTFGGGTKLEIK is at least 0.8.
n

Exam item: decide whether the reported OD450nm for KB001 parental mouse Fab VH variant S65L (Fab, V domains shown) VH: EVQLKQSGPGLVAPSQSLSITCTVSGFSLSIYSVHWVRQPPGKGLEWLGMIWGGGSSDYNSALKLRLSISKDNSKSQVFLKMNSLQTDDTAMYYCARNGNFYAMDYWGQGTSVTVSS VL: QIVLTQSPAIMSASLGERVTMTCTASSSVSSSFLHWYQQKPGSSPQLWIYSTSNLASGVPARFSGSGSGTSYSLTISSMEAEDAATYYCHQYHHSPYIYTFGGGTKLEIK is at least 0.8.
n

Exam item: decide whether the reported OD450nm for KB001 parental mouse Fab VH variant N100Q (Fab, V domains shown) VH: EVQLKQSGPGLVAPSQSLSITCTVSGFSLSIYSVHWVRQPPGKGLEWLGMIWGGGSSDYNSALKSRLSISKDNSKSQVFLKMNSLQTDDTAMYYCARNGQFYAMDYWGQGTSVTVSS VL: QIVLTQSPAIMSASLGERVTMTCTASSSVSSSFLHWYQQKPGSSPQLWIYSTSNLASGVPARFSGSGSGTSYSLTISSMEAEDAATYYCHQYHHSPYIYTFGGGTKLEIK is at least 0.8.
y

Exam item: decide whether the reported OD450nm for KB001 parental mouse Fab VH variant S65F (Fab, V domains shown) VH: EVQLKQSGPGLVAPSQSLSITCTVSGFSLSIYSVHWVRQPPGKGLEWLGMIWGGGSSDYNSALKFRLSISKDNSKSQVFLKMNSLQTDDTAMYYCARNGNFYAMDYWGQGTSVTVSS VL: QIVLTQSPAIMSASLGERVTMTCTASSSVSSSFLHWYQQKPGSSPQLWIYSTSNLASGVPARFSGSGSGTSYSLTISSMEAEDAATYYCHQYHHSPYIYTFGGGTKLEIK is at least 0.8.
n
